molecular target: Substance-P receptor (Homo sapiens, UniProt P25103); experiment: Inhibition of [125I]-substance P binding to human neurokinin-1 (hNK-1) receptor in CHO cells
Sequence (P25103 whole entry): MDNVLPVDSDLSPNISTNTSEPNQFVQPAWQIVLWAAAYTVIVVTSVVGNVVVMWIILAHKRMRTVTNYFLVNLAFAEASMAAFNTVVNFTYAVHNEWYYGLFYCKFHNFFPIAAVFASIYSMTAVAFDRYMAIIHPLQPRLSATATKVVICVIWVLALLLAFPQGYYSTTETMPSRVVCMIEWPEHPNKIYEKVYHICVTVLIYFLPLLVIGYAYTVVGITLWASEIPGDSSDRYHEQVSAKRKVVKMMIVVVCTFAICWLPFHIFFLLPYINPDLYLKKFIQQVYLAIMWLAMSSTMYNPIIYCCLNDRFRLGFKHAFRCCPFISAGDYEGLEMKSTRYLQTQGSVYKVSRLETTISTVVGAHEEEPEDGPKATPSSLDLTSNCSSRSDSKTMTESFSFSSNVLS
I'd appreciate it if you marked entries 1.0 when IC50 is lower than 2 nM and 0.0 when it is not.

Study these solved cases before continuing.
COc1ccccc1CN(C)CCNC(=O)[C@@H]1C[C@@H](C(=O)N(Cc2ccccc2)Cc2ccccc2)CCN1C(=O)N(c1ccccc1)c1cccc(Cl)c1 = 1.0
COC(=O)[C@H]1CCN(C(=O)N(c2ccccc2)c2ccccc2)[C@H](C(=O)NCCN(C)Cc2ccccc2OC)C1 = 0.0
CCCCCN(CCCCC)C(=O)[C@H]1CCN(C(=O)N(c2ccccc2)c2ccccc2)[C@H](C(=O)NCCCN(CC)CC)C1 = 0.0
CCCCCN(CCCCC)C(=O)[C@H]1CCN(C(=O)N(c2ccccc2)c2cccc(Cl)c2)[C@H](C(=O)NCCN(C)Cc2ccccc2OC)C1 = 1.0
CCCCCN(CCCCC)C(=O)[C@H]1CCN(C(=O)N(c2ccccc2)c2ccccc2)[C@H](C(=O)O)C1 = 0.0

## Task Is 2 nM strictly greater than the compound's reported IC50? compound: CCCCCN(CCCCC)C(=O)[C@H]1CCN(C(=O)N(c2ccccc2)c2cccc(Cl)c2)[C@H](C(=O)NCCN(CC(N)=O)C(=O)OCc2ccccc2)C1
## Result 1.0

## Task Is 2 nM strictly greater than the compound's reported IC50? compound: CCCCCN(CCCCC)C(=O)[C@H]1CCN(C(=O)N(c2ccccc2)c2ccccc2)[C@H](C(=O)NCCN(CC(N)=O)Cc2ccccc2OC)C1
## Result 1.0

* * *

target: UniProtKB P25103; assay: Inhibition of [125I]-substance P binding to human neurokinin-1 (hNK-1) receptor in CHO cells
measured attribute: log10 of IC50 (log10 of the value in nM)
Note the log scale: values are log10 of IC50 expressed in nM.

Here are 4 molecules together with their reported answers.
CCCCCN(CCCCC)C(=O)[C@H]1CCN(C(=O)N(c2ccccc2)c2cccc(Cl)c2)[C@H](C(=O)NCCN(CC(N)=O)Cc2ccccc2OC)C1 = 0.58
CCCCCN(CCCCC)C(=O)[C@H]1CCN(C(=O)N(c2ccccc2)c2cccc(Cl)c2)[C@H](C(=O)O)C1 = 1.30
CCCCCN(CCCCC)C(=O)[C@H]1CCN(C(=O)N(c2ccccc2)c2cccc(Cl)c2)[C@H](C(=O)NCCNCC(N)=O)C1 = 0.54
CCCCCN(CCCCC)C(=O)[C@@H]1CCN(C(=O)N(c2ccccc2)c2ccccc2)[C@H](C(=O)NCCN(C)Cc2ccccc2OC)C1 = 1.86

Batch request: log10 of IC50 per item, same order as input.
1. CCCCCN(CCCCC)C(=O)N1CCN(C(=O)N(c2ccccc2)c2cccc(Cl)c2)[C@H](C(=O)NCCCN(CC)CC)C1
2. CCCCCN(CCCCC)C(=O)[C@H]1CCN(C(=O)N(c2ccccc2)c2ccccc2)[C@H](C(=O)NCCN(C)Cc2ccccc2OC)C1
3. CCCCCN(CCCCC)C(=O)[C@H]1CCN(C(=O)N(c2ccccc2)c2ccccc2)[C@H](C(=O)NCCNCC(N)=O)C1

## Result
[0.90, 0.26, 1.11]

* * *

assay: Inhibition of [3H]diltiazem binding to L-type calcium channels of rabbit skeletal muscle; type: tissue-based, Oryctolagus cuniculus, Muscle tissue
measured attribute: IC50

Here are 3 compounds together with their reported answers.
CCCCCN(CCCCC)C(=O)[C@H]1CCN(C(=O)N(c2ccccc2)c2cccc(Cl)c2)[C@H](C(=O)NCCNCC(N)=O)C1 = 3700 nM
COc1ccccc1CN(C)CCNC(=O)[C@@H]1C[C@@H](C(=O)N(Cc2ccccc2)Cc2ccccc2)CCN1C(=O)N(c1ccccc1)c1cccc(Cl)c1 = 110 nM
COC(=O)[C@H]1CCN(C(=O)N(c2ccccc2)c2ccccc2)[C@H](C(=O)NCCN(C)Cc2ccccc2OC)C1 = 470 nM

Batch request: IC50 per item, same order as input.
1. CCCCCN(CCCCC)C(=O)[C@H]1CCN(C(=O)N(c2ccccc2)c2ccccc2)[C@H](C(=O)NCCCN(CC)CC)C1
2. COc1ccccc1CN[C@H]1C2CCN(CC2)[C@H]1C(c1ccccc1)c1ccccc1
3. CCCCCN(CCCCC)C(=O)[C@H]1CCN(C(=O)N(c2ccccc2)c2cccc(Cl)c2)[C@H](C(=O)NCCN(CC(N)=O)C(=O)OCc2ccccc2)C1
4. CCCCCN(CCCCC)C(=O)[C@H]1CCN(C(=O)N(c2ccccc2)c2cccc(Cl)c2)[C@H](C(=O)NCCN(CC(N)=O)Cc2ccccc2OC)C1
5. CCCCCN(CCCCC)C(=O)[C@H]1CCN(C(=O)N(c2ccccc2)c2ccccc2)[C@H](C(=O)NCCNCC(N)=O)C1
6. CCCCCN(CCCCC)C(=O)[C@H]1CCN(C(=O)N(c2ccccc2)c2ccccc2)[C@H](C(=O)O)C1
7. CCCCCN(CCCCC)C(=O)[C@H]1CCN(C(=O)N(c2ccccc2)c2ccccc2)[C@H](C(=O)NCCN(CC(N)=O)Cc2ccccc2OC)C1
8. CCCCCN(CCCCC)C(=O)[C@H]1CCN(C(=O)N(c2ccccc2)c2cccc(Cl)c2)[C@H](C(=O)O)C1

## Result
820 nM
240 nM
> 5000 nM
16200 nM
2700 nM
> 5000 nM
5600 nM
> 5000 nM

Batch request: IC50 per item, same order as input.
1. CCCCCN(CCCCC)C(=O)[C@H]1CCN(C(=O)N(c2ccccc2)c2cccc(Cl)c2)[C@H](C(=O)NCCN(C)Cc2ccccc2OC)C1
2. CCCCCN(CCCCC)C(=O)[C@H]1CCN(C(=O)N(c2ccccc2)c2ccccc2)[C@H](C(=O)NCCN(C)Cc2ccccc2OC)C1

## Result
1: 210 nM; 2: 200 nM
